# TESTED TARGET: human IDO (Homo sapiens, UniProt P14902)
# Sequence (P14902 whole entry): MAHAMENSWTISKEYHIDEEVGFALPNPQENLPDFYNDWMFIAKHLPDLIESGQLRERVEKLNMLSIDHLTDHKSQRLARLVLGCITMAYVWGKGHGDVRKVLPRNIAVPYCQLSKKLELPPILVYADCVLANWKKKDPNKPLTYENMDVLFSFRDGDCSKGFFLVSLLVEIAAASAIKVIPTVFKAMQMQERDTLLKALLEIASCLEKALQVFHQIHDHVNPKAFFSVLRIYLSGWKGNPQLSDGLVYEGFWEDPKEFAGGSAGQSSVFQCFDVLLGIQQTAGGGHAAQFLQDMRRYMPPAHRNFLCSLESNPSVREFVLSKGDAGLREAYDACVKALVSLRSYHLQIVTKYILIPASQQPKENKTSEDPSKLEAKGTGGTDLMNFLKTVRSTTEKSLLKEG
# TEST NAME: Cell based IDO/kynurenine assay in IDO-293-T-Rex cells
# CONDITION LABEL: kynurenine production, 293T cell line stably expressing human IDO; values reported in ranges; read-out: hIDO EC50
pEC50: −log10 of the molar value.
pEC50 for assorted molecules

Solved cases (5 shown):
MOLECULE	MEASURED RESULT
O=C1CSC(=S)N1Cc1ccccc1 [compound 79, 3-Benzyl-2-thioxothiazolidin-4-one]	> 4.70
NC(CSC(=S)NCc1ccccc1)C(=O)O (stereo not drawn) [compound 138]	4.00 to 4.70
COc1cc2oc(=O)cc(CSC(=S)NCCc3c[nH]c4ccccc34)c2cc1OC [compound 23]	4.00 to 4.70
C=CCOc1ccc(CC)c(OCC=C)c1 [compound 252, 2,4-bis(allyloxy)-1-ethylbenzene]	4.00 to 4.70
Oc1ccccc1C(=S)NCc1ccccc1 [compound 656, N-Benzyl-2-hydroxybenzothioamide]	4.00 to 4.70

[in] Value lookup for pEC50; key = S=C(NC1CSc2ccccc2C1)SCc1ccc2ccccc2c1 (stereo not drawn) [compound 64]
[out] 4.00 to 4.70

* * *

# TESTED TARGET: murine IDO (Mus musculus, UniProt P28776)
# Construct: expressed in transfected cells; host or cells: 293-T-REx cells (Invitrogen), doxycycline-inducible CMV-tet promoter
# Sequence (P28776 whole entry): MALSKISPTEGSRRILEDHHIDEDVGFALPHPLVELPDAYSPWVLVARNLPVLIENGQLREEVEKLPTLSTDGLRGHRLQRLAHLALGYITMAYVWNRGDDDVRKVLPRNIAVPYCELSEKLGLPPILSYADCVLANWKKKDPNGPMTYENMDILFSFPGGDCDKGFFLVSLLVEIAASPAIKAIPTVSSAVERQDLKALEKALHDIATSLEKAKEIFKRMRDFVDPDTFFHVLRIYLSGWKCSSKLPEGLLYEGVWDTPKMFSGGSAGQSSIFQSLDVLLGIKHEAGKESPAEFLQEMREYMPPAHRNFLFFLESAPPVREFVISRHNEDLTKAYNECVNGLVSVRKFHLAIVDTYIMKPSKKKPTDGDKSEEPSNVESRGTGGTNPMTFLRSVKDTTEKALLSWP
# TEST NAME: Cell based IDO/kynurenine assay in 293-T-Rex cells expressing murine IDO
# CONDITION LABEL: Table 15; cells expressing murine IDO; read-out: mIDO EC50
Below, each entry is listed with its recorded EC50.

// solved cases for EC50 follow
COMPOUND	PARAMETER	MEASURED RESULT
NOc1cccc2ccccc12 [compound 1903, O-(naphthalen-1-yl)hydroxylamine]	EC50	10 to 100 µM
NOCc1cc(Cl)cc(Cl)c1 [compound 1769, O-(3,5-dichlorobenzyl)hydroxylamine]	EC50	< 10 µM
NOCc1cccc(NCc2ccccc2)c1 [compound 1828, 3-(aminooxymethyl)-N-benzylaniline]	EC50	100 to 1000 µM

[in] Name the reported EC50 value associated with the compound `NOCc1ccc2c(c1)OCCO2`
[out] 10 to 100 µM

[in] And then NOCc1cccc(-c2ccccc2)c1 [compound 1825, O-(biphenyl-3-ylmethyl)hydroxylamine] , what is it?
[out] 10 to 100 µM

[in] Also `Cc1nc(-c2ccccc2)ncc1CON` ?
[out] < 10 µM

[in] Item: NOCc1ccc2ccccc2c1 [compound 1736, O-(naphthalen-2-ylmethyl)hydroxylamine]
[out] < 10 µM

[in] Queued: `NOCc1cc(Cl)ccc1-c1ccc(C(F)(F)F)cc1`
[out] 10 to 100 µM

[in] Try this compound too: NOCc1cc(F)cc(Cl)c1 [compound 1660, O-(3-chloro-5-fluorobenzyl)hydroxylamine]
[out] < 10 µM

[in] Could you do the same for `NOCc1csc2ccc(Cl)cc12` , please?
[out] 10 to 100 µM

[in] Query `N#Cc1cccc(CON)c1` next
[out] < 10 µM

* * *

Recorded pEC50 by entry
# TESTED TARGET: human IDO (Homo sapiens, UniProt P14902)
# TEST NAME: Cell based IDO/kynurenine assay in IDO-293-T-Rex cells
# CONDITION LABEL: kynurenine production, 293T cell line stably expressing human IDO; values reported in ranges; read-out: hIDO EC50
pEC50: −log10 of the molar value.

COMPOUND	pEC50
CSC(=S)NCCc1ccc(C)cc1C [compound 66]	3.00 to 4.00
S=C(NCCc1c[nH]c2ccccc12)SCCc1cccc(Br)c1 [compound 7]	3.00 to 4.00
O=C1C=C(O)C(=O)c2nc(O)ccc21 [compound 320, 2,7-dihydroxyquinoline-5,8-dione]	2.00 to 3.00
Cc1ccc(SC(=S)Nc2ccccc2)cc1 [compound 142, p-tolyl phenylcarbamodithioate]	3.00 to 4.00

[in] Consider the compound O=C1NC(=S)S/C1=C\c1ccc2c(c1)OCO2 [compound 148] and give its measured pEC50.
[out] 3.00 to 4.00

[in] Cool, now Cc1ccc(CCSC(=S)NCCc2c[nH]c3ccccc23)cc1 [compound 9]
[out] 4.00 to 4.70

[in] Can you handle O=C(O)CC(=O)c1ccc(F)cc1 [compound 313, 3-(4-fluorophenyl)-3-oxopropanoic acid] next?
[out] 3.00 to 4.00

[in] Moving on to the next compound: COc1ccc(CCSC(=S)NCCc2c[nH]c3ccccc23)cc1 [compound 2]
[out] 3.00 to 4.00

[in] Another compound to look at: NC(=O)C(=O)NNc1ccccc1 [compound 312, 2-oxo-2-(2-phenylhydrazinyl)acetamide]
[out] > 4.70

All values here come from patent US20130289083A1.
